Biological target: Kir3.1/Kir3.4 (Homo sapiens, UniProt P48544+P48549)
Sequence (P48549 whole entry): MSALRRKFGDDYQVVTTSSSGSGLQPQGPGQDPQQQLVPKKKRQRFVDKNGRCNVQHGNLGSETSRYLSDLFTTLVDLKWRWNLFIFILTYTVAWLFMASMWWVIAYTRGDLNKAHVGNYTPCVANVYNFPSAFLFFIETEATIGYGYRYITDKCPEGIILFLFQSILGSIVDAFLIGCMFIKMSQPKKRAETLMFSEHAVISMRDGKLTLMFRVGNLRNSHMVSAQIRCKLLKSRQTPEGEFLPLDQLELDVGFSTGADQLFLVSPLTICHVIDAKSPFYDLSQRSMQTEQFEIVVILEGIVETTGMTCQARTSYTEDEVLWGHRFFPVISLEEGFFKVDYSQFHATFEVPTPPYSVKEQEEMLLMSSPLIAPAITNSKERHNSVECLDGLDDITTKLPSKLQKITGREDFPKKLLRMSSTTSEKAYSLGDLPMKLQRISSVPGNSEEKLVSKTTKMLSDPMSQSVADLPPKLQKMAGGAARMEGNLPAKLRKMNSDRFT
Sequence (P48544 whole entry): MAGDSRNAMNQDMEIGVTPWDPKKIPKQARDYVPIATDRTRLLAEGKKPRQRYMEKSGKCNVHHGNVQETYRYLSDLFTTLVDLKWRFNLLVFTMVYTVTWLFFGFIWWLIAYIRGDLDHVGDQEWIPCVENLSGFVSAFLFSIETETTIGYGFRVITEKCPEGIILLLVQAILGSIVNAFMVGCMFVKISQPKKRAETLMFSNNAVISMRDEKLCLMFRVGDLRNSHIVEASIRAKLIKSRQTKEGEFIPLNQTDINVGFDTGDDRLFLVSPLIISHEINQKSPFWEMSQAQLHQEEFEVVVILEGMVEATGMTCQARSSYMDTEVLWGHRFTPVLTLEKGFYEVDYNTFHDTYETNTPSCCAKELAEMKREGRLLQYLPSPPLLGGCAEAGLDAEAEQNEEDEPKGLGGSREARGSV
Assay: Activation of GIRK1/4 (unknown origin) transfected in HEK293 cells after 4 mins by thallium flux-based fluorescence assay
Type: cell-based
Property: EC50 (µM)

Cc1ccc(NC(=O)Nc2ccc(C)c(S(=O)(=O)N(C)C)c2)cc1Cl : 6.2

P = Cc1ccc(NC(=O)Nc2cccc(F)c2)cc1S(=O)(=O)N(C)C
Q = COc1ccc(NC(=O)Nc2ccc(C)c(S(=O)(=O)N(C)C)c2)cc1
IN: Looking only at measured EC50, which entry is lower, P or Q ? Give the label of your selection.
OUT: P

* * *

Target: Kir3.1/Kir3.4 (Homo sapiens) (UniProt P48549+P48544)
Test: Activation of GIRK1/4 (unknown origin) by cell-based thallium flux assay relative to control
Property: Efficacy (%)

Worked set:
CN(C)S(=O)(=O)c1cccc(NC(=O)Cc2ccccc2Cl)c1 : 123
Cc1ccc(NC(=O)Cc2ccccc2Cl)cc1S(=O)(=O)N(C)C : 104
Cc1ccc(NC(=O)Cc2ccccc2Br)cc1S(=O)(=O)N(C)C : 114

a = Cc1ccc(NC(=O)Cc2ccc(F)cc2)cc1S(=O)(=O)N(C)C
b = CN(C)S(=O)(=O)c1cccc(NC(=O)Cc2ccc(Cl)cc2)c1
IN: Looking only at measured Efficacy, which entry is lower, a or b ? Give the label of your selection.
OUT: b
(b: 64%, a: 108%)

* * *

Target: Kir3.1/Kir3.2 (Homo sapiens) (UniProt P48549+P48051)
Test: Activation of GIRK1/2 (unknown origin) transfected in HEK293 cells at 20 uM after 4 mins by thallium flux-based fluorescence assay relative to ML297
Assay type: cell-based
Property: Efficacy (%)

CC(C)(C)c1cccc(NC(=O)Cc2ccccc2Cl)c1 : 44
Cc1ccc(NC(=O)Nc2ccccc2F)cc1S(=O)(=O)N(C)C : 111
COc1ccc(NC(=O)Nc2ccc(C)c(S(=O)(=O)N(C)C)c2)cc1 : 101
Cc1ccc(NC(=O)Nc2ccccc2)cc1S(=O)(=O)N(C)C : 94

P = Cc1ccc(NC(=O)Nc2ccc(C(F)(F)F)cc2)cc1S(=O)(=O)N(C)C
Q = Cc1ccc(NC(=O)Nc2ccc(C)c(S(=O)(=O)N(C)C)c2)cc1Cl
IN: Looking only at measured Efficacy, which entry is lower, P or Q ? Give the label of your selection.
OUT: P
(P: 26%, Q: 91%)

* * *

Target: Kir3.1/Kir3.2 (Homo sapiens) (UniProt P48549+P48051)
Experiment: Activation of GIRK1/2 (unknown origin) by cell-based thallium flux assay relative to control
Property: Efficacy (%)

Worked set:
Cc1ccc(NC(=O)Cc2ccccc2Cl)cc1S(=O)(=O)N(C)C : 110
Cc1ccc(NC(=O)Cc2ccc(F)cc2)cc1S(=O)(=O)N(C)C : 107
CN(C)S(=O)(=O)c1cccc(NC(=O)Cc2ccccc2Cl)c1 : 55

A = CN(C)S(=O)(=O)c1cccc(NC(=O)Cc2ccc(Cl)cc2)c1
B = Cc1ccc(NC(=O)Cc2ccccc2Br)cc1S(=O)(=O)N(C)C
IN: Looking only at measured Efficacy, which entry is lower, A or B ? Give the label of your selection.
OUT: A

* * *

Target: Kir3.1/Kir3.4 (Homo sapiens) (UniProt P48549+P48544)
Test: Activation of GIRK1/4 (unknown origin) transfected in HEK293 cells at 20 uM after 4 mins by thallium flux-based fluorescence assay relative to ML297
Type: cell-based
Property: Efficacy (%)

O=C(Cc1ccccc1Cl)Nc1ccc(C(F)(F)F)cc1 : 20
O=C(Cc1ccccc1Cl)Nc1cccc(OC(F)F)c1 : 119
COc1ccc(NC(=O)Nc2ccc(C)c(S(=O)(=O)N(C)C)c2)cc1 : 104
O=C(Cc1ccccc1Cl)Nc1ccc(Cl)c(C(F)(F)F)c1 : 17
Cc1ccc(NC(=O)Nc2ccccc2F)cc1S(=O)(=O)N(C)C : 72

P = Cc1ccc(NC(=O)Nc2ccc(Cl)cc2)cc1S(=O)(=O)N(C)C
Q = O=C(Cc1ccccc1Cl)Nc1cccc(Cl)c1
IN: Looking only at measured Efficacy, which entry is lower, P or Q ? Give the label of your selection.
OUT: Q

I = Cc1ccc(NC(=O)Nc2ccccc2Cl)cc1S(=O)(=O)N(C)C
II = Cc1ccc(NC(=O)Nc2cccc(C#N)c2)cc1S(=O)(=O)N(C)C
III = Cc1ccc(NC(=O)Nc2cccc(F)c2)cc1S(=O)(=O)N(C)C
IN: Please rank these compounds by Efficacy in descending order. Lab note: record answer as labels in requested order.
OUT: I, III, II
